# measured-target: Interleukin-15 (Homo sapiens)
# experiment-summary: Binding affinity to recombinant human IL-15 assessed as dissociation constant by SPR analysis
# condition-label: read-out: Kd
pKd: −log10 of the molar value.
measurement-label: pKd

                         compound_structure  numeric_value
0  Cn1c(Cc2nn(CCC=O)c(=O)c3ccccc23)nnc1SCCCCCCCC(=O)Nc1ccc(Cl)cc1Cl           5.11
1  Cn1c(Cc2nn(C)c(=O)c3ccccc23)nnc1SCCCCCCCC(=O)Nc1ccc(Cl)cc1Cl           5.89
2  Cn1c(Cc2nn(CCCO)c(=O)c3ccccc23)nnc1SCCCCCCCC(=O)Nc1ccc(Cl)cc1Cl           5.41
3  Cn1c(Cc2nn(C)c(=O)c3ccccc23)nnc1SCCCCCCCC(=O)Nc1ccc(C(=O)c2ccccc2)cc1           5.46

(A) Cn1nc(Cc2nnc(SCCCCCCCC(=O)Nc3ccc(Cl)cc3Cl)n2CCC=O)c2ccccc2c1=O
(B) Cn1nc(Cc2nnc(SCCCCCCCC(=O)Nc3ccc(Cl)cc3Cl)[nH]2)c2ccccc2c1=O
Exercise: Looking at A and B , which one comes out lower in pKd terms? Reply with the label of the item you choose.
Solution: A
(A: 5.23, B: 5.62)

---

# measured-target: UniProt P60568
# Sequence (P60568 whole entry): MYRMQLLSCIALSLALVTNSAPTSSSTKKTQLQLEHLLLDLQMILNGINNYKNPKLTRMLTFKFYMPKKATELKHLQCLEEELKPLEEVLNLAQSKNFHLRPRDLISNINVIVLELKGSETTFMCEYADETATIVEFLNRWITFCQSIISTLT
# experiment-summary: Inhibition of IL2-induced STAT5 phosphorylation in human NK92 cells incubated for 30 mins followed by IL-2 stimulation and measured after 1 hr by alphascreen assay
measurement-label: IC50

>>> print(df.to_string())
                         compound_structure  measured_target   result
0  Cn1nc(Cc2nnc(SCCCCCCCC(=O)Nc3ccc(Cl)cc3Cl)n2CCC(=O)O)c2ccccc2c1=O   UniProt P60568  14.3 µM

Exercise: Fill in the blank: the reported IC50 of Cn1c(Cc2nn(CCC=O)c(=O)c3ccccc23)nnc1SCC(=O)Nc1ccc(Cl)cc1Cl is ____.
Solution: > 30 µM

Exercise: Fill in the blank: the reported IC50 of CN(C)CCCn1nc(Cc2nnc(SCC(=O)Nc3ccc(Cl)cc3Cl)n2C)c2ccccc2c1=O is ____.
Solution: > 30 µM

Exercise: Fill in the blank: the reported IC50 of Cn1c(Cc2nn(CCCO)c(=O)c3ccccc23)nnc1SCCCCCCCC(=O)Nc1ccc(Cl)cc1Cl is ____.
Solution: > 30 µM

---

# measured-target: Interleukin-15 (Homo sapiens, UniProt P40933)
# Sequence (P40933 whole entry): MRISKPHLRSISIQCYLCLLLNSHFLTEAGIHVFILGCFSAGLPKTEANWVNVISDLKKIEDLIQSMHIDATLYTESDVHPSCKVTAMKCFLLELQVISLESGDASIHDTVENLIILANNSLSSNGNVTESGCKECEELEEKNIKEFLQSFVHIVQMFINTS
# experiment-summary: Inhibition of IL-15-induced STAT5 phosphorylation in human NK92 cells incubated for 30 mins followed by IL-15 stimulation and measured after 1 hr by alphascreen assay
measurement-label: IC50 (µM)

(1) Cn1nc(Cc2nnc(SCC(=O)Nc3ccc(Cl)cc3Cl)n2CCC=O)c2ccccc2c1=O
(2) Cn1c(Cc2nn(CCC=O)c(=O)c3ccccc23)nnc1SCCCCCCCC(=O)Nc1ccc(Cl)cc1Cl
Exercise: Given 1 and 2 , report the one with the higher recorded IC50. Reply with the label of the item you choose.
Solution: 2
(2: 14.9 µM, 1: 4.2 µM)

(A) Cn1c(Cc2nn(C)c(=O)c3ccccc23)nnc1SCC(=O)Nc1ccc(Cl)cc1Cl
(B) Cn1nc(Cc2nnc(SCCCCCCCC(=O)Nc3ccc(Cl)cc3Cl)n2CCC(=O)O)c2ccccc2c1=O
Exercise: Looking at A and B , which one comes out lower in IC50 terms? Reply with the label of the item you choose.
Solution: A

(a) Cn1nc(Cc2nnc(SCCCCCCCC(=O)Nc3ccc(Cl)cc3Cl)[nH]2)c2ccccc2c1=O
(b) Cn1c(Cc2nn(C)c(=O)c3ccccc23)nnc1SCCCCCCCC(=O)Nc1ccc(Cl)cc1Cl
Exercise: Given a and b , report the one with the higher recorded IC50. Reply with the label of the item you choose.
Solution: a
